B1: WEE1 (parent)
chain: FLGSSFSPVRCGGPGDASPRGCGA

Variants of: B1
Assay: protein stability index of a GFP-peptide fusion (GPS, HEK-293T) (PSI 1-6); higher = more stable;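 also: lentivirally expressed fusions sorted by FACS into six bins by GFP to DsRed ratio, PSI derived from sequencing read proportions per bin multiplied by bin number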
Conditions: c terminus: a fixed tail appended
For each entry below, report its protein stability index value.
No unit in the answer, only the number.

Q: Given the entry `R20I` , report its measured protein stability index.
A: 1.23

Q: Next variant: `G15M`
A: 1.88

Q: And what about the variant `A17V` ?
A: 1.47

Q: Field entry: `G15R`
A: 1.56

Q: `V9P` ?
A: 2.58
